Reference for the values: patent US12065436B2

Molecular target: bovine cardiac myofibrils (full-length cardiac myosin ATPase in the native sarcomere) (Bos taurus (Bovine), UniProt Q9BE39)
Sequence (Q9BE39 whole entry): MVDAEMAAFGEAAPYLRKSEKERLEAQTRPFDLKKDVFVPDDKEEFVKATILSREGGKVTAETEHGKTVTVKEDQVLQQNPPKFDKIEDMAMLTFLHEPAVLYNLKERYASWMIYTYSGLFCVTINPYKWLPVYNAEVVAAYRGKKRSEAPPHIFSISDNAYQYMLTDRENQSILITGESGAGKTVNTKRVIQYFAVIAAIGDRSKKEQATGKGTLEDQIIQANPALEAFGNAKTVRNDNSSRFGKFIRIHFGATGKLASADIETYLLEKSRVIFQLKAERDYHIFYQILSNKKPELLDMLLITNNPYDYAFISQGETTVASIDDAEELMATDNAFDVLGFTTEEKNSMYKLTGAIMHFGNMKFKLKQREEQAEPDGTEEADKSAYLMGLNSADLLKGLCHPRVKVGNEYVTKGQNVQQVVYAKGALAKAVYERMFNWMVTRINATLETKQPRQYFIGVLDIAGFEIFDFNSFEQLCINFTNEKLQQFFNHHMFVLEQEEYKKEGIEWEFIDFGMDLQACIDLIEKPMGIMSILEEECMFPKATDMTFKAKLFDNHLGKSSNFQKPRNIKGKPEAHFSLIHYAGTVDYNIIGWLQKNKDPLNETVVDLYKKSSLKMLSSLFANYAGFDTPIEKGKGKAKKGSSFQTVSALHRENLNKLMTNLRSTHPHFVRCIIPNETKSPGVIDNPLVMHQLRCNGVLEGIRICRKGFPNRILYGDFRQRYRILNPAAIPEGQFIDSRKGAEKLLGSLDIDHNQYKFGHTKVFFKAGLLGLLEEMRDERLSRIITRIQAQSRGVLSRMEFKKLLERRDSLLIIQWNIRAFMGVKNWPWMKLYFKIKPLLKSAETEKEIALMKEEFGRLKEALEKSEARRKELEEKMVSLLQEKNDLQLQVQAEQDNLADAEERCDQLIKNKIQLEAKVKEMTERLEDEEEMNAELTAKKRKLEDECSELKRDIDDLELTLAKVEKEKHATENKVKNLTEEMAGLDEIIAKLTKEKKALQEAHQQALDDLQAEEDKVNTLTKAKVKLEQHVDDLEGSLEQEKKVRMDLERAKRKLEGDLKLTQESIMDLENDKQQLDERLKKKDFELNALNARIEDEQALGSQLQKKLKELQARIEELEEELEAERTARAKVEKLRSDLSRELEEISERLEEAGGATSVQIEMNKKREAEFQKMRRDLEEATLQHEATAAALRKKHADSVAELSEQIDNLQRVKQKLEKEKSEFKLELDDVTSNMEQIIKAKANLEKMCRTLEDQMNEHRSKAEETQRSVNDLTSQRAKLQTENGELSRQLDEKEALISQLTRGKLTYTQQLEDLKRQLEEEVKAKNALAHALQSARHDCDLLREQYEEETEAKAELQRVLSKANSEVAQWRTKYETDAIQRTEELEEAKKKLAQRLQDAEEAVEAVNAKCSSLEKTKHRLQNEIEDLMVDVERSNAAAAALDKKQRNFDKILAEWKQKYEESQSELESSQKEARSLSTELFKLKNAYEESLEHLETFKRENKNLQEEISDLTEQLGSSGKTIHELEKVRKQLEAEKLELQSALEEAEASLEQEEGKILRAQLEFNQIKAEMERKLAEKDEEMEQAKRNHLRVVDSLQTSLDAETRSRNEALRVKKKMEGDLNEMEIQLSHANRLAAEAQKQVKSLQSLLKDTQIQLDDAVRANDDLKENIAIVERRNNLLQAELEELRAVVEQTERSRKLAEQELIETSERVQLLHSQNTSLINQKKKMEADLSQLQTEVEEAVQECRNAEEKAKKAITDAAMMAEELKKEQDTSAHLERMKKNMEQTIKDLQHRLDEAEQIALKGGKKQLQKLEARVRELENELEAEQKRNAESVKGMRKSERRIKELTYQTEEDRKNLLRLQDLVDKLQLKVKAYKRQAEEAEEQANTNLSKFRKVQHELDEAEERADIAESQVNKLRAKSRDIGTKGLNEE
Sequence (P85100 whole entry partner): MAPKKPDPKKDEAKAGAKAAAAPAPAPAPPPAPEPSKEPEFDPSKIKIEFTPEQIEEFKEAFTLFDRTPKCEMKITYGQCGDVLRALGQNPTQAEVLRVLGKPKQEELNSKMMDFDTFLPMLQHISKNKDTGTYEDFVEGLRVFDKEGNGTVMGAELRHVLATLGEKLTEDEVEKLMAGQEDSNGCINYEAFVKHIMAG
Sequence (Q3SZE5 whole entry partner): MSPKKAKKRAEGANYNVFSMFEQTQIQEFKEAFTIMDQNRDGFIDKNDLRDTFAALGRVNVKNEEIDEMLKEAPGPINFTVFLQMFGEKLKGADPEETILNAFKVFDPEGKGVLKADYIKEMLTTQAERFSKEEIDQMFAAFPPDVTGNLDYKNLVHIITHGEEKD
Assay: Skinned bovine cardiac myofibril ATPase assay (PK/LDH-coupled)
Format: biochemical
Details: Ca2+ activating to 75% of maximal rate, concentration giving 15% inhibition
Experimental: To evaluate the effect of compounds on the ATPase activity of full-length cardiac myosin in the context of the native sarcomere, skinned myofibril assays were performed. […] Small molecule agents were assessed for their ability to inhibit the steady-state ATPase activity of bovine cardiac myofibrils using pyruvate kinase and lactate dehydrogenase (PK/LDH)-coupled enzyme system. This assay regenerates myosin-produced ADP into ATP by oxidizing NADH, producing an absorbance change at 340 nm. […]

[
  {
    "molecule": "[2H]C([2H])([2H])c1nc(-c2ccc3c(c2)CC[C@H]3NC(=O)C(F)F)no1 [Compound 442]",
    "CDMF75 IC15": "2500 nM"
  },
  {
    "molecule": "CCc1nc(-c2ccc3c(c2)OCCC3NC(=O)c2ccnn2C)no1 (stereo not drawn) [Compound 536]",
    "CDMF75 IC15": "1100 nM"
  },
  {
    "molecule": "COCc1nc(-c2ccc3c(c2)CC[C@H]3NC(=O)c2nnn(C)n2)no1 [Compound 144]",
    "CDMF75 IC15": "600 nM"
  },
  {
    "molecule": "Cn1nccc1C(=O)N[C@@H]1CCc2cc(-c3ccccn3)ccc21 [Compound 367]",
    "CDMF75 IC15": "13900 nM"
  },
  {
    "molecule": "Cc1cc(C(=O)N[C@@H]2COc3cc(-c4cc(C)on4)ccc32)ccn1 [Compound 430]",
    "CDMF75 IC15": "1000 nM"
  },
  {
    "molecule": "COCc1nc(-c2ccc3c(c2)CC[C@H]3NC(=O)c2conc2C)no1 [Compound 689]",
    "CDMF75 IC15": "600 nM"
  },
  {
    "molecule": "CN1CCN(C(=O)N[C@@H]2CCc3cc(-c4noc(C(F)F)n4)ccc32)CC1 [Compound 302]",
    "CDMF75 IC15": "39200 nM"
  },
  {
    "molecule": "Cn1nccc1C(=O)N[C@@H]1CCc2cc(-c3nc(C4CC4)no3)ccc21 [Compound 261]",
    "CDMF75 IC15": "400 nM"
  },
  {
    "molecule": "C=Cn1cc(C(=O)N[C@@H]2CCc3cc(-c4noc(CC)n4)ccc32)cn1 [Compound 527]",
    "CDMF75 IC15": "300 nM"
  },
  {
    "molecule": "Cc1cc(C(=O)N[C@@H]2CCc3cc(-c4nnn(C)n4)ccc32)ccn1 [Compound 147]",
    "CDMF75 IC15": "1300 nM"
  },
  {
    "molecule": "Cc1nc(-c2ccc3c(c2)OC[C@H]3NC(=O)c2cn(C)nc2C)no1 [Compound 158]",
    "CDMF75 IC15": "700 nM"
  },
  {
    "molecule": "Cn1nnc(C(=O)N[C@@H]2CCc3cc(-c4noc(C5CCC5)n4)ccc32)n1 [Compound 143]",
    "CDMF75 IC15": "300 nM"
  },
  {
    "molecule": "CCc1nc(-c2ccc3c(c2)CC[C@H]3NC(=O)c2nnn(C)n2)no1 [Compound 183]",
    "CDMF75 IC15": "300 nM"
  },
  {
    "molecule": "CCOC(=O)c1cc(C(=O)N[C@@H]2CCc3cc(-c4noc(CC)n4)ccc32)ccn1 [Compound 555]",
    "CDMF75 IC15": "1000 nM"
  },
  {
    "molecule": "Cc1nc(-c2ccc3c(c2)CC[C@H]3NC(=O)OC2CCC2)no1 [Compound 319]",
    "CDMF75 IC15": "1300 nM"
  },
  {
    "molecule": "Cc1cccc(-c2ccc3c(c2)CC[C@H]3NC(=O)c2ccnn2C)n1 [Compound 377]",
    "CDMF75 IC15": "4500 nM"
  },
  {
    "molecule": "O=C(NC1CCc2cc(-c3noc(C(F)F)n3)ccc21)C(F)F (stereo not drawn) [Compound 1]",
    "CDMF75 IC15": "4500 nM"
  },
  {
    "molecule": "CCc1nc(-c2ccc3c(c2)CC[C@H]3NC(=O)c2nccn2C)no1 [Compound 579]",
    "CDMF75 IC15": "1200 nM"
  }
]
